Numbers sourced from PubChem BioAssay AID330.

# Test system: P388 leukemia ip, CD2F1 mice, survival T/C
# assay.method.text: NCI In Vivo Anticancer Drug Screen. Data for tumor model P388 Leukemia (intraperitoneal) in CD2F1 (CDF1) mice
# assay.setup: endpoint: median survival time; dose: 50.0 mg/kg/injection; schedule: Q01DX009 (ip); vehicle: saline with Tween-80; higher = longer survival
Toxic doses and inconclusive results are not listed.
// values below are reported T/C

NNS(=O)(=O)c1ccccc1
103 % of control
NC1(P(=O)(O)O)CCCCC1
116 % of control
N=C(N)SCc1c2ccccc2cc2ccccc12
109 % of control

Entry CC(=O)c1ccc(N=NN(C)c2ccc(C(C)=O)cc2)cc1 , system P388 leukemia ip, CD2F1 mice, survival T/C: what T/C was measured?
108 % of control

// repeat for CCSCCC1(CCC(C)C)C(=O)NC(=Nc2ccccc2)NC1=O (configuration not stated) and report
99 % of control

Also need CC(=O)Nc1ncn[nH]1 , thanks.
100 % of control

And the next one, CC(=O)OCC1OC(n2ncc(=O)[nH]c2=O)C(OC(C)=O)C1OC(C)=O (configuration not stated) ?
122 % of control
